Test details: decrease of insulin promoter-GFP reporter – imaging, high-content screening, mouse beta cells (AID 1628)
Condition details: MIN6 insulin promoter GFP reporter, at 5 µM, stronger effect = lower value
Out of some 190,000 compounds screened, about 930 (0.49%) were called active. Some of the results follow. Measured potencies and affinities stand elsewhere.
Lab note: cut-off is 2. Strictly less in z-score is t. Exactly 2 or more is f.

Take a look at these entries with their results.
                                   compound  discrete_label
0  COc1ccc(C(=O)N(CN2CCCC2=O)c2ccc(C)cc2)cc1               f
1  CCOc1ccc2[nH]c(=O)c(CN(Cc3ccco3)C(CC)c3nnnn3Cc3ccccc3)cc2c1 (stereo unspecified)               t
2  O=C(CSc1ccc2nnc(CCNC(=O)c3ccccc3)n2n1)Nc1ccccc1               f
3  CC(/C=C/c1ccco1)=N\NC(=O)C(O)c1ccccc1 (stereo unspecified)               t
4        O=C(CCn1cccc1)Nc1ccc(OC(F)(F)F)cc1               f
5  CCC(c1nnnn1Cc1ccco1)N(Cc1ccccc1OC)Cc1cc2cc(C)ccc2[nH]c1=O (stereo unspecified)               t
6  C=CCC(c1ccccc1)N(C(C)=O)c1ccco1 (stereo unspecified)               f
7  COC(=O)c1cnn2c(C(F)(F)F)cc(-c3ccc(F)cc3)nc12               f

Given the entry CCC1COC(c2cccn2Cc2ccc(Cl)cc2)=N1 (stereo unspecified) , would its reported z-score be below 2?
f

Please let me know if "COc1ccc(S(=O)(=O)N(CCCN2CCCC2=O)Cc2cc3c(C)ccc(C)c3[nH]c2=O)cc1" shows z-score below 2.
t

Does "CCc1ccccc1NC1=CC(=O)CC(C)(C)C1" have z-score strictly under 2?
t

====

Test details: decrease of insulin promoter-GFP reporter – imaging, high-content screening, mouse beta cells (AID 1628)
Condition details: MIN6 insulin promoter GFP reporter, at 5 µM, stronger effect = lower value
The whole screen tested about 190,000 compounds, of which about 930 (0.49%) were called active. This is one part of the list. Measured potencies and affinities stand elsewhere.
Quantity: z-score
Answer with the value's number alone.

>>> df
                                   compound  test_value
0  CCCN1CCc2c(sc(NC(=S)NC(=O)c3ccccc3)c2C#N)C1         5.2

Dear colleague, I am looking for the recorded z-score of the following compound: "Cn1c(/C(C#N)=C/c2ccc(-c3ccc(S(N)(=O)=O)cc3)o2)nc2ccccc21"
4.53

Name the recorded z-score for CCCCNC(=O)C1CC(=O)N(C2CCCCC2)C1 (centres undefined) .
3.02

What value of z-score has been recorded for this entry: "COc1cccc(/C=N/n2c(=O)[nH]c3ccccc32)c1OC"
-4.61

Which measured z-score value corresponds to "CCNC(=S)NS(=O)(=O)c1ccc(Cl)cc1" ?
-3.8

Can you share its z-score? I mean this compound: "O=C(CCNS(=O)(=O)c1ccc(Cl)cc1)NCc1cccs1"
1.64

Sample "CC(C)(CNS(=O)(=O)c1ccc(Cl)cc1)N1CCCCC1" — what was its z-score?
3.62

For "O=C(CSc1ccc2ccccc2c1)NCCc1ccc(O)c(O)c1" , what is its reported z-score?
-3.3

Look at this compound and give its reported z-score. "Cc1ccc(-n2c(C)nc3oc4ccccc4c(=O)c3c2=O)cc1"
3.88

# z-score lookup, item "Cn1c(SCC(=O)NNC(=O)Cc2ccccc2)nnc1-c1ccc(Cl)cc1"
-3.49

// lookup z-score for Cc1[nH]c2ccccc2c1C(=O)CN1CCCCC1C (centres undefined)
-1.61

# z-score lookup, item Cc1nn(C)c(C)c1CNC(=O)c1nn2c(c1Cl)NC(c1cccs1)CC2C(F)(F)F (centres undefined)
-4.07

Item Cc1nn(C)cc1CNC(=O)c1cc2n(n1)C(C(F)(F)F)CC(c1cccs1)N2 (centres undefined) has what recorded z-score?
-3.69

If you can, please state the reported z-score value of "COC(=O)c1[nH]c2cccc(Cl)c2c1NC(=O)CN(C)C1CCCCC1" .
3.5

Which measured z-score value corresponds to "CCNc1c(N)c(=O)oc2ccccc12" ?
-0.02

z-score for "O=c1oc2ccccc2c(NCc2cccc(F)c2)c1[N+](=O)[O-]" ?
1.25

Recorded z-score for "CCn1c(SCC(=O)c2c[nH]c3ccccc23)nc2cc(S(=O)(=O)N3CCOCC3)ccc21" , please?
3.09
